The reported measurements were obtained from patent US20160354480A1.

Please go through the items and note down their Ki.
# target_or_test_system: T1, human neurotensin receptor type 1 (human, UniProt P30989 1-418)
# T1 construct: whole, on cells; Used as cell membrane homogenates (0.5 ug/well), not intact cells; also called hNTR-1; Human NTR-1
# T1 sequence (P30989 whole entry): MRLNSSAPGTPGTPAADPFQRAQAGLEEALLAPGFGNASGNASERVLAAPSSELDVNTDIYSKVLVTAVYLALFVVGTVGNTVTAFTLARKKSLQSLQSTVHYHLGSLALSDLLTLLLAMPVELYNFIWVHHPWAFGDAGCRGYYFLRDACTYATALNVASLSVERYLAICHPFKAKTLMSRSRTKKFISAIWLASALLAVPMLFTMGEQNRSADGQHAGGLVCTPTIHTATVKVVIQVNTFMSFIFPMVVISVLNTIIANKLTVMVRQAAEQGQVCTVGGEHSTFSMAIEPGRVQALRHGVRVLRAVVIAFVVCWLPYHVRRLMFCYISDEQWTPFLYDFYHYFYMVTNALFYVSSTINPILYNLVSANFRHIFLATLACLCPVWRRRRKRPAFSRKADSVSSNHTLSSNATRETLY
# assay: competition with [3H]-neurotensin on membranes of CHO cells expressing human NTR-1; Ki from mean IC50 by Cheng-Prusoff
Bridge positions count the residues as written; N and C are the ends. Square brackets hold non-standard residues; d marks the D form. Ends that are not written are not given here. * marks the point of attachment. Pen = CC(C)(S)[C@H](N)C(=O)O; Tle = CC(C)(C)[C@H](N)C(=O)O; Pip = O=C(O)[C@@H]1CCCCN1; Propionyl = CCC(=O)*; Sar = CNCC(=O)O
Numeric answer only, unit nM assumed.

In: Given Propionyl-[dC]M[Pip]RLR[Sar][Pen]KRPY[Tle]L-OH (disulfide 1-8; SMILES CCC(=O)N[C@@H]1CSSC(C)(C)[C@@H](C(=O)N[C@@H](CCCCN)C(=O)N[C@@H](CCCNC(=N)N)C(=O)N2CCC[C@H]2C(=O)N[C@@H](Cc2ccc(O)cc2)C(=O)N[C@H](C(=O)N[C@@H](CC(C)C)C(=O)O)C(C)(C)C)NC(=O)CN(C)C(=O)[C@H](CCCNC(=N)N)NC(=O)[C@H](CC(C)C)NC(=O)[C@H](CCCNC(=N)N)NC(=O)[C@@H]2CCCCN2C(=O)[C@H](CCSC)NC1=O) [compound XX, SEQ ID NO: 11-[Lys8, Tle12]NT(8-13)] , state its recorded Ki.
Out: 0.11

In: Given Propionyl-[dC]M[Pip]RLR[Sar]CRKPY[Tle]L-OH (disulfide 1-8; SMILES CCC(=O)N[C@@H]1CSSC[C@@H](C(=O)N[C@@H](CCCNC(=N)N)C(=O)N[C@@H](CCCCN)C(=O)N2CCC[C@H]2C(=O)N[C@@H](Cc2ccc(O)cc2)C(=O)N[C@H](C(=O)N[C@@H](CC(C)C)C(=O)O)C(C)(C)C)NC(=O)CN(C)C(=O)[C@H](CCCNC(=N)N)NC(=O)[C@H](CC(C)C)NC(=O)[C@H](CCCNC(=N)N)NC(=O)[C@@H]2CCCCN2C(=O)[C@H](CCSC)NC1=O) [compound XVII, SEQ ID NO: 9-[Lys9, Tle12]NT(8-13)] , state its recorded Ki.
Out: 0.47

In: Given KRPY[Tle]L (X stands for Tle) [[Lys8, Tle12]NT(8-13)] , state its recorded Ki.
Out: 0.22

In: Given Propionyl-[dC]M[Pip]RLR[Sar]CKRPY[Tle]L-OH (disulfide 1-8; SMILES CCC(=O)N[C@@H]1CSSC[C@@H](C(=O)N[C@@H](CCCCN)C(=O)N[C@@H](CCCNC(=N)N)C(=O)N2CCC[C@H]2C(=O)N[C@@H](Cc2ccc(O)cc2)C(=O)N[C@H](C(=O)N[C@@H](CC(C)C)C(=O)O)C(C)(C)C)NC(=O)CN(C)C(=O)[C@H](CCCNC(=N)N)NC(=O)[C@H](CC(C)C)NC(=O)[C@H](CCCNC(=N)N)NC(=O)[C@@H]2CCCCN2C(=O)[C@H](CCSC)NC1=O) [compound XVI, SEQ ID NO: 9-[Lys8, Tle12]NT(8-13)] , state its recorded Ki.
Out: 0.15
